Entries and their measured growth inhibition follow.
# assay-name: NCI Yeast Anticancer Drug Screen. Data for the rad50 strain (AID 155);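 note: 0% = growth of vehicle-only cultures of the same strain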
# condition-info: S. cerevisiae rad50 strain growth inhibition; at 50.0 µM (retest, dose inferred, filed as 5.0); hits give high values
This is part of a sample that, as a whole, favours compounds with a hit. Of some 79,000 tested, about 15% had one in any assay.
Field: numeric (%). Do not append units.

Q: Consider the compound shown here: [Cl][Sn]1([c]2ccccc2)[O]CCNCC[O]1 What is its recorded growth inhibition?
Result: 97

Q: # growth inhibition lookup, item CC(=O)OC(C)(C)/C=C/C(=O)[C@](C)(O)[C@H]1[C@H](O)C[C@@]2(C)[C@@H]3CC=C4[C@@H](C[C@H](O)[C@H](O)C4(C)C)[C@]3(C)C(=O)C[C@]12C
Result: 98
